Each recorded value in this set is attributed to paper PMC6514812.

- Test system: PC3-CXCR4 xenograft tumors
- MEASUREMENT_PROTOCOL: Biodistribution in mice bearing bilateral PC3-WT/PC3-CXCR4 xenograft tumors
- Type: in vivo, BALB/c mice
- STATED_CONDITIONS: 1 h p.i.
REPORTED_ENDPOINT: Heart tissue activity (%ID/g)

FCCn1cc(CNCc2ccc(CN3CCCNCCNCCCNCC3)cc2)nn1 [RPS-547] | 0.18

I = FCCn1cc(CCNCc2ccc(CN3CCCNCCNCCCNCC3)cc2)nn1 [RPS-552]
II = FCCn1cc(-c2cc(CNCc3ccccn3)ccc2CN2CCCNCCNCCCNCC2)nn1 [RPS-533]
III = FCCn1cc(-c2cc(CN3CCCNCCNCCCNCC3)ccc2CNCc2ccccn2)nn1 [RPS-534]
Enquiry: Please rank these molecules by Heart tissue activity in descending order. A ranking is expressed here by listing the labels in the requested order.
Return: II, III, I
(II: 0.57 %ID/g, III: 0.25 %ID/g, I: 0.13 %ID/g)

* * *

- Test system: PC3-CXCR4 xenograft tumors
- MEASUREMENT_PROTOCOL: Biodistribution in mice bearing bilateral PC3-WT/PC3-CXCR4 xenograft tumors
- Format: in vivo, BALB/c mice
- STATED_CONDITIONS: 1 h p.i.
REPORTED_ENDPOINT: PC3-CXCR4 Tumor-to-Tissue Ratio Liver

// solved cases for PC3-CXCR4 Tumor-to-Tissue Ratio Liver follow
FCCn1cc(CNCc2ccc(CN3CCCNCCNCCCNCC3)cc2)nn1 [RPS-547] | 0.5
FCCn1cc(-c2cc(CNCc3ccccn3)ccc2CN2CCCNCCNCCCNCC2)nn1 [RPS-533] | 0.5

A = FCCn1cc(-c2cc(CN3CCCNCCNCCCNCC3)ccc2CNCc2ccccn2)nn1 [RPS-534]
B = FCCn1cc(CCNCc2ccc(CN3CCCNCCNCCCNCC3)cc2)nn1 [RPS-552]
Enquiry: Input pair: A , B . Output: entry with lower PC3-CXCR4 Tumor-to-Tissue Ratio Liver. Answer by quoting the chosen item's label.
Return: A
(A: 0.4, B: 0.6)
